# tested target: hGOAT (Homo sapiens)
# Sequence (Q96T53 1-435): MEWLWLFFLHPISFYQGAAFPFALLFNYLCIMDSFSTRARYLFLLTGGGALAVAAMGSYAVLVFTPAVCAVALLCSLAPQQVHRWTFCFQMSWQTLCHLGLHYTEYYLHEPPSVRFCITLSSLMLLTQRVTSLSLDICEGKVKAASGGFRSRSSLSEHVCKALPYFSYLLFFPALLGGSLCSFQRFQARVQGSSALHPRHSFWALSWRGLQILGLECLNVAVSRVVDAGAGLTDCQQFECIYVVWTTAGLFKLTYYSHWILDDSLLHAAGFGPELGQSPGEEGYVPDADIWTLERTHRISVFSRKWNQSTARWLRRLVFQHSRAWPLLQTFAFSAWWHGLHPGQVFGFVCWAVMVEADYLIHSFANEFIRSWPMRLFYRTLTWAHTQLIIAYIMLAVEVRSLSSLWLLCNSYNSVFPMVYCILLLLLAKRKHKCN
measurement kind: IC50 (µM)
Return type: number; implicit unit µM.

CCNC(=O)[C@]12CCC(C)(C)C[C@H]1[C@H]1C(=O)C=C3[C@@]4(C)C=C(C#N)C(=O)C(C)(C)[C@@H]4CC[C@@]3(C)[C@]1(C)CC2 | 8

Next:
For record CC1(C)CC[C@]2(C(=O)n3ccnc3)CC[C@]3(C)[C@H](C(=O)C=C4[C@@]5(C)C=C(C#N)C(=O)C(C)(C)[C@@H]5CC[C@]43C)[C@@H]2C1 the listed IC50 is 38
